In what follows, each item is paired with its IC50 for aldosterone synthase (CYP11B2) (Macaca fascicularis, UniProt A0A2K5UPL9).
Give your result in nM as a bare value.

// solved cases for IC50 follow
[[record]]
compound = "CCS(=O)(=O)NC1COCc2c(-c3ccc4cnn(C)c4c3)cncc21 (single isomer, unassigned)"
property_label = "IC50"
scale_unit = "nM"
val = 31.3

[[record]]
compound = "CC(=O)NC1COCc2c(-c3ccc4cnn(C)c4c3)cncc21 (single isomer, unassigned)"
property_label = "IC50"
scale_unit = "nM"
val = 25.6

[[record]]
compound = "O=C1NCCc2cc(-c3cncc4c3COCC4O)ccc21 (single isomer, unassigned) [Compound 120]"
property_label = "IC50"
scale_unit = "nM"
val = 790

[[record]]
compound = "OC1COCc2c(-c3ccccc3)cncc21 (single isomer, unassigned)"
property_label = "IC50"
scale_unit = "nM"
val = 484

[[record]]
compound = "N#Cc1ccc(-c2cncc3c2COCC3O)cc1Cl (single isomer, unassigned)"
property_label = "IC50"
scale_unit = "nM"
val = 6.1


IC50 of O=c1ccc2cc(-c3cncc4c3COCC4O)ccc2o1 (single isomer, unassigned) , assay on aldosterone synthase (CYP11B2) (Macaca fascicularis, UniProt A0A2K5UPL9), is 22.8

IC50 of N#CC1CC=C(c2cncc3c2COCC3O)CC1 (single isomer, unassigned) [Compound 192] , assay on aldosterone synthase (CYP11B2) (Macaca fascicularis, UniProt A0A2K5UPL9), is 14

IC50 of O=C1CCOc2cc(-c3cncc4c3COCC4O)ccc21 (single isomer, unassigned) , assay on aldosterone synthase (CYP11B2) (Macaca fascicularis, UniProt A0A2K5UPL9), is 16.3

---

In what follows, each item is paired with its IC50 for aldosterone synthase (CYP11B2) (Macaca fascicularis, UniProt A0A2K5UPL9).

// solved cases for IC50 follow
[[record]]
compound = "CCS(=O)(=O)NC1COCc2c(-c3ccc4c(c3)C(O)CCO4)cncc21 (single isomer, unassigned) [Compound 133]"
val = "1470 nM"

[[record]]
compound = "CCS(=O)(=O)NC1COCc2c(-c3cc4c(cnn4C)cc3F)cncc21 (single isomer, unassigned) [Compound 195]"
val = "140 nM"

[[record]]
compound = "N#CC1CC=C(c2cncc3c2COCC3O)CC1 (single isomer, unassigned) [Compound 186]"
val = "67 nM"

[[record]]
compound = "CC(=O)N1Cc2ccc(-c3cncc4c3COCC4O)cc2C1 (single isomer, unassigned) [Compound 109]"
val = "544 nM"

[[record]]
compound = "O=C1CCc2cc(-c3cncc4c3COCC4O)ccc2N1 (single isomer, unassigned) [Compound 2]"
val = "101 nM"


IC50 of CCS(=O)(=O)NC1COCc2c(-c3ccc4c(c3)COCC4(F)F)cncc21 (single isomer, unassigned) [Compound 196] , assay on aldosterone synthase (CYP11B2) (Macaca fascicularis, UniProt A0A2K5UPL9), is 330 nM

IC50 of OC1COCc2c(-c3ccc4scnc4c3)cncc21 (single isomer, unassigned) [Compound 33] , assay on aldosterone synthase (CYP11B2) (Macaca fascicularis, UniProt A0A2K5UPL9), is 40.5 nM

IC50 of Cc1n[nH]c2ccc(-c3cncc4c3COCC4O)cc12 (single isomer, unassigned) [Compound 10] , assay on aldosterone synthase (CYP11B2) (Macaca fascicularis, UniProt A0A2K5UPL9), is 115 nM

IC50 of O=C1NCCc2cc(-c3cncc4c3COCC4O)ccc21 (single isomer, unassigned) [Compound 121] , assay on aldosterone synthase (CYP11B2) (Macaca fascicularis, UniProt A0A2K5UPL9), is 95 nM

IC50 of Cn1ncc2c(C#N)cc(-c3cncc4c3COCC4(C)O)cc21 (single isomer, unassigned) [Compound 174] , assay on aldosterone synthase (CYP11B2) (Macaca fascicularis, UniProt A0A2K5UPL9), is 4400 nM

IC50 of NC(=O)N1CCCc2cc(-c3cncc4c3COCC4O)cnc21 (stereo not drawn) [Compound 102] , assay on aldosterone synthase (CYP11B2) (Macaca fascicularis, UniProt A0A2K5UPL9), is 64.9 nM

IC50 of CCS(=O)(=O)NC1COCc2c(-c3cc4c(cnn4C)cc3C)cncc21 (single isomer, unassigned) [Compound 79] , assay on aldosterone synthase (CYP11B2) (Macaca fascicularis, UniProt A0A2K5UPL9), is 653 nM

IC50 of O=C1CCc2cc(-c3cncc4c3COCC4O)ccc21 (single isomer, unassigned) [Compound 183] , assay on aldosterone synthase (CYP11B2) (Macaca fascicularis, UniProt A0A2K5UPL9), is 52 nM

IC50 of Cc1ncc2ccc(-c3cncc4c3COCC4O)cn12 (single isomer, unassigned) [Compound 87] , assay on aldosterone synthase (CYP11B2) (Macaca fascicularis, UniProt A0A2K5UPL9), is 123 nM

IC50 of CC1(O)CCOc2ccc(-c3cncc4c3COCC4O)cc21 (single isomer, unassigned) [Compound 140] , assay on aldosterone synthase (CYP11B2) (Macaca fascicularis, UniProt A0A2K5UPL9), is 12000 nM

IC50 of Cn1ncc2cc(F)c(-c3cncc4c3COCC4O)cc21 (single isomer, unassigned) [Compound 19] , assay on aldosterone synthase (CYP11B2) (Macaca fascicularis, UniProt A0A2K5UPL9), is 153 nM

IC50 of OC1COCc2c(-c3ccc4c(c3)OCCCO4)cncc21 (single isomer, unassigned) [Compound 43] , assay on aldosterone synthase (CYP11B2) (Macaca fascicularis, UniProt A0A2K5UPL9), is 22 nM

IC50 of Cn1ncc2c(F)cc(-c3cncc4c3COCC4(C)O)cc21 (single isomer, unassigned) [Compound 176] , assay on aldosterone synthase (CYP11B2) (Macaca fascicularis, UniProt A0A2K5UPL9), is 13.4 nM

IC50 of CCC(=O)NC1COCc2c(-c3ccc4c(c3)OCCNC4=O)cncc21 (single isomer, unassigned) [Compound 147] , assay on aldosterone synthase (CYP11B2) (Macaca fascicularis, UniProt A0A2K5UPL9), is 1690 nM

IC50 of CCS(=O)(=O)NC1COCc2c(-c3cc4c(cnn4C)cc3C)cncc21 (single isomer, unassigned) [Compound 78] , assay on aldosterone synthase (CYP11B2) (Macaca fascicularis, UniProt A0A2K5UPL9), is 2800 nM

IC50 of O=C1NCCOc2cc(-c3cncc4c3COCC4O)ccc21 (single isomer, unassigned) [Compound 145] , assay on aldosterone synthase (CYP11B2) (Macaca fascicularis, UniProt A0A2K5UPL9), is 738 nM
